Experiment: Pharmacokinetics in Sprague Dawley rats (plasma and brain concentrations, PK parameters)
Format: in vivo
Settings: Sprague-Dawley, rat, plasma, iv, 3 mg/kg, Sprague Dawley rat, iv 3 mg/kg, plasma, 1 h, mean of 3 rats; read-out: Concentration Mean

molecule	units-symbol	concentration at 1 h
O=C1CCC(N2C(=O)c3cccc(NCCOCCOCCNCc4ccc(-n5cc(NC(=O)c6coc(-c7ccnc(NCC8CC8)c7)n6)c(C(F)F)n5)cc4)c3C2=O)C(=O)N1 (stereo not shown) [I-210]	ng/mL	225

###

Experiment: Pharmacokinetics in CD-1 mice (plasma concentrations, PK parameters)
Format: in vivo
Conditions: CD-1, mouse, plasma, sc, 30 mg/kg, mouse (CD1) sc 30 mg/kg; Mean SC; read-out: Tmax
measurement-label: Tmax (h)

compound	measurement-label	endpoint-value
NC(=O)c1nn(-c2ccc(C(=O)NCCOCCOCCNc3cccc4c3C(=O)N(C3CCC(=O)NC3=O)C4=O)cc2)cc1NC(=O)c1coc(-c2ccnc(NCC(F)(F)F)c2)n1 (stereo not shown)	Tmax	2.67
